assay: human hepatoma cell viability loss – ATP luminescence, cytotoxicity control for P. falciparum antimalarial project, primary screen (AID 2303); settings: HepG2 viability, 24-48 h, at 10 µM, stronger effect = higher value;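 further: 0% = DMSO wells and 100% = digitonin-killed cells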
ENDPOINT_NAME: inhibition (%)
Provide the reading as a plain figure in %.

{"COMPOUND": "CCN(CC)CCN(Cc1ccc(-c2ccc(C(F)(F)F)cc2)cc1)C(=O)Cn1c(CCc2ccc(F)c(F)c2)cc(=O)c2ccccc21", "UNIT_ABBREV": "%", "READING": 23}
{"COMPOUND": "O=C(Nc1cccc(-c2ccc(-c3nc4ccc(C(F)(F)F)cc4[nH]3)s2)c1)c1cnc[nH]1", "UNIT_ABBREV": "%", "READING": 55}
{"COMPOUND": "OCCN1CCN(c2nc(Nc3cccc(F)c3)c3cnn(-c4ccccc4)c3n2)CC1", "UNIT_ABBREV": "%", "READING": 89}
{"COMPOUND": "CC(C)CCn1c(Sc2ccc(C#N)c([N+](=O)[O-])c2)nnc1-c1ccccc1Cl", "UNIT_ABBREV": "%", "READING": 20}
{"COMPOUND": "COc1ccc(-c2ccccc2CNC2Cc3ccccc3C2)cc1S(=O)(=O)NCCN1CCCC1", "UNIT_ABBREV": "%", "READING": 18}
{"COMPOUND": "CCn1cc(-c2nc(-c3cc(OC)cc(OC)c3)no2)c(=O)c2ccccc21", "UNIT_ABBREV": "%", "READING": -7}

Can you share its inhibition? I mean this compound: `COc1cccc(CNC[C@@H](O)[C@H](Cc2ccccc2)NC(=O)c2cc(C3CCCC3)cc(N3CCCCS3(=O)=O)c2)c1`
7

# iterate: CCNc1cc(C(=O)N[C@@H](Cc2ccccc2Cl)[C@H](O)CNC(C)CCCC(C)C)cc(N2CCCCS2(=O)=O)c1 (some centres undefined)
12

# iterate: `CCCCCCCN1CC[C@@H](CCCc2ccnc3ccc(OCCC4CCNCC4)cc23)[C@@H](CC)C1`
94

# iterate: COc1ccc(OC)c(-c2ccc(O)c(CNCC(C)c3ccccc3)c2)c1 (centres undefined)
26

# iterate: `O=C(Nc1ccc(C(F)(F)F)cc1)c1ccc(S(=O)(=O)NC2CCN(CC3CCCCC3)CC2)cc1`
30

# iterate: `O=C(c1ccc(F)c2ccccc12)N1CCc2cc3nccc(N4CCN5CCC[C@H]5C4)c3cc21`
-8

# iterate: `COc1ccc2nccc([C@@H](O)CN3CCC(NCc4nc5c(OCc6ccccc6)cccc5[nH]4)CC3)c2c1`
6

# iterate: `O=C(c1ccco1)c1cn(CCOc2ccccc2)c2ccccc12`
5

# iterate: `CCOc1c(CNCCCNc2cc(=O)c3ccccc3[nH]2)cc(Br)cc1OC`
10

# iterate: `Cc1ccc2[nH]c3c(NCCCN4CCOCC4)ncnc3c2c1`
-1

# iterate: `CC(C)CN(C)c1ncnc2c1nc(-c1cncc(C#N)c1)n2CCNCc1ccccc1`
4

# iterate: `CCOC(=O)c1ccc(NC(=O)Nc2ccc(-c3ccc(-c4nc5c(C)cccc5[nH]4)s3)cc2)cc1`
60

# iterate: `Cc1cccc2[nH]c(-c3cccc(-c4cccc(NC(=O)Nc5ccccc5)c4)c3)nc12`
8

* * *

assay: inhibition of 3D7 malaria parasite growth – strain 3D7 (AID 2306);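 further: 0% = DMSO wells and 100% = chloroquine plus artemisinin control wells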; details: P. falciparum 3D7 erythrocytic growth, LDH absorbance, 72 h; at 2 µM; stronger effect = higher value
compounds and their reported growth inhibition
Provide the reading as a plain figure in %.

Reference set, count: 5
{"COMPOUND": "COc1cc2c(cc1OC)C(C(=O)Nc1ccc(C(F)(F)F)cc1)C(c1cccs1)N(C)C2=O (centres undefined)", "READING": 99}
{"COMPOUND": "CC(CN(C)C)C(=O)Nc1cccc(-c2ccc(-c3nc4ccccc4[nH]3)s2)c1 (centres undefined)", "READING": 100}
{"COMPOUND": "O=C(Nc1ccc(OC2CCN(Cc3ccc(F)cc3)C2)c(Cl)c1)c1ccoc1 (centres undefined)", "READING": 90}
{"COMPOUND": "O=C(Nc1ccc(Cl)cc1)c1ccc(CN2CCCN(CC3CCCCC3)CC2)cc1", "READING": 92}
{"COMPOUND": "O=C(Nc1ccc(-c2cccc(-c3nc4ccc(F)cc4[nH]3)c2)cc1)Nc1ccc(F)c(F)c1F", "READING": 100}

Can you share its growth inhibition? I mean this compound: `CC(=O)Nc1nc(C(=O)Nc2cccc(-c3ccc(-c4nc5c(C)cccc5[nH]4)cc3)c2)cs1`
100

# iterate: `CN1CCN(c2ccnc3cc4c(cc23)N(Cc2ccccc2)CC4)CC1`
94

# iterate: `O=C(Nc1ccc2c(c1)CCN(C1CCC1)CC2)c1cn(-c2ccccc2)nc1-c1ccccc1`
103

# iterate: `COc1ccc2nccc(N3CCC(O)(CCNCc4ccc5c(n4)NC(=O)CO5)CC3)c2n1`
100
